tested on: SK-MEL-28 melanoma; assay: NCI-60 one-dose screen, 48 h; conditions: 10 µM unless noted
The panel holds about 83,000 compounds, 20% with a hit somewhere; the sample as a whole holds those more often. The source made the active and inactive calls. The calls were made as follows: active = growth percent below 10; inactive = the rest.
A correct response names exactly one class from true (active), false (inactive)

Hi, sorry to bother you, what did the test record for COc1cccc(Oc2ccccc2NC(=O)CNC(=O)c2cccc3ccccc23)c1 ? false

For COc1ccc(C2=Nn3c(nnc3-c3cc(Cl)cc(Cl)c3Cl)SC2)cc1 , what call appears in the results of this test? false

What outcome does the record of this test show for COc1nc2ccc(C)cc2cc1-c1nc2c(cnn2-c2ccccc2)c(=O)[nH]1 ? false

Recorded call for CC(=O)N1CCN(c2ccc(OCC3CO[C@](Cn4ccnc4)(c4ccc(Cl)cc4Cl)O3)cc2)CC1 (stereo not given in full) ? false

Field: outcome | Entry: O=c1c2cc(F)ccc2sc2c(N3CCCCC3)nc3ccccc3c12 false

Which outcome was assigned to O=c1c2cc(F)ccc2sc2c(NCCN3CCOCC3)nc3ccccc3c12 in this test? false

What did this assay record as the result for Fc1cc(-c2nnc3sc(-c4ccc(Cl)cc4Cl)nn23)c(Cl)cc1Cl ? false

Kindly provide the recorded test outcome for the following molecule: CC(=O)OC[C@H]1OC(Sc2sc(C(=O)c3ccc(Br)cc3)c(N)c2-c2nc3ccccc3s2)[C@H](OC(C)=O)[C@@H](OC(C)=O)[C@H]1OC(C)=O (stereo not given in full) false

Just curious, what result did COc1ccc(/C=N/Nc2cc(=O)[nH]c3ccc(Cl)cc23)cc1 get here? false

Lab log entry: O=[N+]([O-])c1ccccc1NCSc1ccc(Cl)cc1 — outcome as called in the assay? false

Name the outcome recorded for CN1C(=C2C(=O)OC(C)(C)OC2=O)CCC1C(=O)NCc1ccc(Cl)cc1Cl (stereo not given) in the assay. false

Hi, do you know how Cc1cccc2c3c(sc12)C(c1ccc(Cl)cc1)C(C#N)=C(/N=C/c1ccc(Cl)cc1)O3 (stereo not given) came out in this test? false

Status in this test for C=C(C)C1CCC2(C)OC2C1 (stereo not given) ? false

For this molecule, state the assay outcome: Cc1ccc(-c2nc3c(c(-c4ccccc4)nn3-c3ccccc3)c(-c3ccc(O)cc3)c2C#N)cc1 false

# lookup: test call for CCOC(=O)C1=C(N)Oc2c(sc3c(C)cccc23)C1c1ccc(Cl)cc1 (stereo not given) false

Tell me the assay call for Cc1cc(=O)oc2cc(OC(=O)CN3CCN(C)CC3)ccc12 please. false

Test call for this molecule, please: COc1cc(C(=O)N/N=C/c2cc3cc(OCc4ccccc4)ccc3nc2OC)cc(OC)c1OC false

For this molecule, state the assay outcome: N#CC1=C(N)Oc2c(sc3c(Br)cccc23)C1c1ccc([N+](=O)[O-])cc1 (stereo not given) false

Look up the recorded call for CCOC(=O)c1sc2ncc(-c3ccc(OC)cc3)n2c1C in this test. false

Fill in: this test's call for CCCC1CCC(O)(C(C)(O)C(=O)NC2C(=O)N3NCCCC3C(=O)N(O)C(C)C(=O)N3NCCCC3C(=O)N3NCC(O)CC3C(=O)NC(C)C(=O)OC2C(C)C)OC1CC (stereo not given) is ___ true

---

test system: M14 melanoma; assay: NCI-60 one-dose screen, 48 h; conditions: 10 µM unless noted
This is part of a sample that, as a whole, favours compounds with a hit. Of some 83,000 tested, about 20% had one in any assay. Active and inactive are the calls of the source. How the source made its calls: active means growth percent below 10; inactive means the rest.
// one of active, inactive, no free text

Give the logged outcome of this assay for the following compound: COc1ccc2c(c1OC)C(=O)O[C@H]2[C@H]1c2c(cc3c(c2OC)OCO3)CCN1C inactive

Field: outcome | Entry: COc1ccc(/C=C2\Oc3cc(OCCN4CCC(Cc5ccccc5)CC4)ccc3C2=O)cc1OC inactive

Hi, sorry to bother you, what did the test record for COc1c(C2CC(=O)Nc3c2c(C)nn3-c2nc3ccccc3[nH]2)cc2c(c1OC)OCO2 (centres undefined) ? inactive

Look up the recorded call for Oc1ccc(-c2nc3ccc4[nH]ncc4c3c3c2CCCC3)c2cccnc12 in this test. active

Field: outcome | Entry: Cc1c(C(=O)NCCCc2ccccc2)sc2ncc(-c3ccc(Br)cc3)n12 inactive

Entry Cc1ccc(-c2nc3c(c(-c4ccccc4)nn3-c3ccccc3)c(-c3ccc(O)cc3)c2C#N)cc1 : call = ? inactive

Hi, do you know how COc1cccc(Cc2cc(-c3ccccc3)nn(CC(=O)c3ccccc3)c2=O)c1 came out in this test? inactive

Outcome? CCOC(=O)c1cnn2c3ccccc3n(S(=O)(=O)c3ccc(OC)cc3)c12 inactive

What is the recorded call for this compound in the test? C=C(C)[C@@H]1CC[C@]2(N=C=O)CC[C@]3(C)[C@H](CC[C@@H]4[C@@]5(C)Cc6c([nH]c7ccccc67)C(C)(C)[C@@H]5CC[C@]43C)[C@@H]12 inactive

GET /call?item= CCc1ccc(Oc2c(-c3ccc(OCCc4cccc(C(F)(F)F)c4)cc3O)n[nH]c2C(F)(F)F)cc1 returns the recorded outcome of this test. inactive

Any idea what this test logged for Cc1ccc(-c2nc(N3CCN(CC(=O)Nc4ccc(Cl)cc4)CC3)c3ccccc3n2)cc1 ? inactive

Outcome? CCc1ccc2nc(NC(=O)Cc3csc(NC(=O)c4ccco4)n3)sc2c1 inactive

Recorded call for COc1c(N2CC3CCCN(C(C)=O)C3C2)c(F)cc2c(=O)c(C(=O)N[C@H]3C(O)[C@@H](O)C(CO)O[C@H]3O)cn(C3CC3)c12 (some centres undefined) ? inactive

Per the records of this test, what outcome belongs to CCCCCCNC(=O)Oc1ccc(/C(=C(\C)c2ccc(Cl)cc2)c2ccc(OCCCN(C)C)cc2)cc1 ? inactive

So what was the verdict on CC(=O)N1CCN(c2ccc(OCC3CO[C@](Cn4ccnc4)(c4ccc(Cl)cc4Cl)O3)cc2)CC1 (some centres undefined) in this test? inactive

Record request — test call for CCCCN(C)N=Nc1ccc(C(N)=O)cc1 inactive

I'd appreciate the recorded outcome for S=C(c1cccs1)N1CCN(c2cccc(Cl)c2)CC1 from this test. inactive

Each compound tested received a call. Report the one for CCCCC1CCCC12NC(=O)NC2=O (centres undefined) . inactive

Query: recorded result category for COc1ccc2c(c1)c(-c1nn3cc(-c4cccs4)nc3s1)cn2C in this test inactive
